Just for reference, the RNAGym collection of RNA variant scans (doi:10.7554/elife.80360) is where these values come from.

B1: HDV Ribozyme (parent)
chain: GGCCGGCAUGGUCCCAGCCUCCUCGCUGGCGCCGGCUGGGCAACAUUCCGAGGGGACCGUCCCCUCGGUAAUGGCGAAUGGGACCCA

Variants of: B1
Assay: self-cleavage, relative activity (ratio to wild type); higher = more cleavage; co-transcriptional
Give Fulfilled when the value for self-cleavage is at least 0.1. Give Not fulfilled when it is less.

VARIANT DESIGNATION: C13U G50U
CLASS: Fulfilled

VARIANT DESIGNATION: G25A G28A
CLASS: Not fulfilled

VARIANT DESIGNATION: G28U U65A
CLASS: Not fulfilled

VARIANT DESIGNATION: G6U C61U
CLASS: Fulfilled

VARIANT DESIGNATION: G59C G80A
CLASS: Fulfilled

VARIANT DESIGNATION: C3G G29U
CLASS: Not fulfilled

VARIANT DESIGNATION: C13A A83U
CLASS: Fulfilled

VARIANT DESIGNATION: C49G C75A
CLASS: Fulfilled

VARIANT DESIGNATION: G5C A16U
CLASS: Fulfilled

VARIANT DESIGNATION: G39U U72G
CLASS: Fulfilled

VARIANT DESIGNATION: G2A G80C
CLASS: Not fulfilled

VARIANT DESIGNATION: C48A G67C
CLASS: Fulfilled

VARIANT DESIGNATION: C62G A83C
CLASS: Fulfilled

VARIANT DESIGNATION: C22G G80C
CLASS: Fulfilled

VARIANT DESIGNATION: G39U G76C
CLASS: Fulfilled

VARIANT DESIGNATION: G11C G38A
CLASS: Not fulfilled

VARIANT DESIGNATION: C14G C49U
CLASS: Fulfilled

VARIANT DESIGNATION: C14U G31A
CLASS: Fulfilled

VARIANT DESIGNATION: C62G C86A
CLASS: Fulfilled

VARIANT DESIGNATION: G31A G35C
CLASS: Not fulfilled

VARIANT DESIGNATION: G10U C41A
CLASS: Fulfilled
